Entries annotated with measured ED50
tested on: hypothermic effect caused by reserpine; assay: Reserpine antagonism (elimination of the hypothermic effect caused by reserpine); format: in vivo; settings: Mus musculus; mice, oral, 17 h after 2 mg/kg i.p. reserpine; 7 hours; read-out: Reserpine antagonism after 7 hours (ED50)

Can you share its ED50? I mean this compound: CN1Cc2c(cc(CN3CCCC3)n2C)C(c2ccc(Br)cc2)C1 (stereo not drawn) [dimaleate]
< 10 mg/kg

---
Can you share its ED50? I mean this compound: Cn1ccc2c1CNCC2c1ccc(Br)cc1.O=C(O)/C=C\C(=O)O (stereo not drawn)
40 mg/kg

Can you share its ED50? I mean this compound: CN1Cc2c(cc(CN3CCCCCC3)n2C)C(c2ccc(Br)cc2)C1 (stereo not drawn) [dimaleate]
> 40 mg/kg

Can you share its ED50? I mean this compound: CN(CCO)Cc1cc2c(n1C)CN(C)CC2c1ccc(Br)cc1 (stereo not drawn)
10 mg/kg

Can you share its ED50? I mean this compound: CN1Cc2c(ccn2C)C(c2ccc(F)cc2)C1.Cl (stereo not drawn)
< 10 mg/kg

Can you share its ED50? I mean this compound: CN1Cc2c(cc(Br)n2C)C(c2ccc(Br)cc2)C1 (stereo not drawn)
10 mg/kg

Can you share its ED50? I mean this compound: CN1Cc2c(cc(CN3CCOCC3)n2C)C(c2ccccc2)C1 (stereo not drawn)
< 40 mg/kg

Can you share its ED50? I mean this compound: CCN1Cc2c(ccn2C)C(c2ccc(C)cc2)C1.Cl (stereo not drawn)
> 40 mg/kg
